These data points were gathered from paper PMC6422423.

target: turtle bombesin receptor subtype-3 (turtle (Chrysemys picta)); assay: radioligand binding; displacement of 50 pM [125I]-Tyr42-GRP by unlabeled peptide on disaggregated transfected HEK293 cells; 1 h at 21°C; 24.5 mM HEPES pH 7.4, 98 mM NaCl; bound tracer separated by centrifugation
Sequence (main, as listed by the source): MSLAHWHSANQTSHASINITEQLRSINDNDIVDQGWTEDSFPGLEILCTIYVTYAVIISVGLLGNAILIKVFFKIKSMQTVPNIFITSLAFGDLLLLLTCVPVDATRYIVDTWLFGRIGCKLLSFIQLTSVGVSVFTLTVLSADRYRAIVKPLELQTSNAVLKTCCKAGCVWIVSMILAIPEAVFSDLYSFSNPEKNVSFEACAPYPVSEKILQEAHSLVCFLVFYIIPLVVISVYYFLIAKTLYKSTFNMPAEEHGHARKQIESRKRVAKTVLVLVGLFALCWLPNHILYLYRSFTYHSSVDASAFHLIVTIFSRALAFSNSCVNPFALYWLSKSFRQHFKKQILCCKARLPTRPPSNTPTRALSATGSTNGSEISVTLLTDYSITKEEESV
Where no end group is shown, it is not given here.
property_measured: IC50 (nM)

>  <binder>
APLQPGGSPALTKIYPRGSHWAVGHLM (ends and bridges not checked) [gastrin-releasing peptide, unlabeled ligand peptide of the radioligand binding assays]

>  <property_measured>
IC50

>  <reported_result>
0.14

$$$$
